The measurements presented in this section are drawn from ChEMBL document CHEMBL1147649.

studySystem: UniProtKB P56817
Sequence (P56817 whole entry): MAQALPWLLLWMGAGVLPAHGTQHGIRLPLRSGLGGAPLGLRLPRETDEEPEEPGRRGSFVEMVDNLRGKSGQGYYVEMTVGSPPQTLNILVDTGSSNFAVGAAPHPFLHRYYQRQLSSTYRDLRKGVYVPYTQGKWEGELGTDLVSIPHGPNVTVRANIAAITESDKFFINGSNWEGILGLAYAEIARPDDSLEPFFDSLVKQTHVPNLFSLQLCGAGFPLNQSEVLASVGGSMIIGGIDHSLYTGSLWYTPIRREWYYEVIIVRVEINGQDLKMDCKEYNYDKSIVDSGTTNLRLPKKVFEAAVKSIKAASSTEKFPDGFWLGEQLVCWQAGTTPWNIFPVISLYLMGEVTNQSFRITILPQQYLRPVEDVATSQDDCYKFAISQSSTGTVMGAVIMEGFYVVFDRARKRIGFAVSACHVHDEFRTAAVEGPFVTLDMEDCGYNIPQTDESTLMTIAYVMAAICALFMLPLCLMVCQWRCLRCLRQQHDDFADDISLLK
experimentalProtocol: Inhibition of BACE1 at 2 uM
Items are presented alongside their recorded inhibition.
Field note: include the unit after the figure.

- structureAsSmiles: "CC(C)C[C@H](NC(=O)[C@@H](NC(=O)[C@@H](N)CCC(=O)O)C(C)C)C(=O)N[C@@H](Cc1ccccc1)[C@@H](O)C(=O)Nc1cc(C(=O)O)cc(C(=O)O)c1"
  inhibition: "98.3%"
- structureAsSmiles: "CC(C)C[C@H](NC(=O)[C@@H](NC(=O)[C@@H](N)CNC(=O)c1nn[nH]n1)C(C)C)C(=O)N[C@@H](Cc1ccccc1)[C@@H](O)C(=O)Nc1cccc(-c2noc(O)n2)c1"
  inhibition: "100%"

We now examine a further molecule.
Requested read-out: inhibition. Entry: `CC(C)C[C@H](NC(=O)[C@@H](NC(=O)[C@@H](N)CCC(=O)O)C(C)C)C(=O)N[C@@H](Cc1ccccc1)[C@@H](O)C(=O)Nc1cccc(-c2nsc(=O)[nH]2)c1`
91.9%
